Recorded values, source PubChem BioAssay (NCI).

# System: K-562 leukemia
# assay_overview: NCI tumour cell line growth inhibition, 48 h
Reported TGI values for a set of molecules

[N-]=[N+]=NC[C@H]1OCO[C@H](CN=[N+]=[N-])[C@H]2OCCOCCOc3ccccc3OCCOCCO[C@@H]21    > 100 µM
O=C(O)[C@@H](NS(=O)(=O)c1ccc2ccccc2c1)c1ccccc1    > 100 µM
C[C@H]1c2ccccc2CN1CCCOc1cc2c(cc1OCC1CC1)C1(CCCC1)C(N)=N2    2.46 µM
O=C1CSC(c2ccccc2O)N1c1nnc(Cn2ccnc2)o1 (stereo not drawn)    > 100 µM
CC1=C[C@@H](C)C[C@]2(C)CC[C@H](O2)[C@]23CC[C@](C)(C[C@H](O2)[C@@H]2O[C@@](C)(CC2=O)[C@@H](O)[C@H]2CC[C@@]4(CCC[C@@H](O4)[C@H](C)C(=O)O[C@H]4C[C@H]([C@]5(O)OCC[C@H](C)[C@@H]5O)O[C@H]4C=C1)O2)O3    > 10 µM
O=S(=O)(O)c1cc(O)c2c(O)c(N=Nc3cccc4ccccc34)c(S(=O)(=O)O)cc2c1    > 100 µM
C=CCC1(CC)C(=O)NC(=O)NC1=O    > 100 µM

Please turn your attention to the following entry.
Fill in: K-562 leukemia TGI for `CCOC(=O)c1c(NCc2ccccc2)n(-c2ccccc2)c(=S)n(-c2ccccc2)c1=O` = > 100 µM
